Assignment: determine reported Relative activity, KU812-IL5 production by reduced IL33 for the given binders.
Molecular target: T1, ST2 on the effector cells (KU812, KU812/NF-κB-1#, HUVEC, HMC-1) (human, UniProt Q01638 19-556)
T1 sequence (looked up): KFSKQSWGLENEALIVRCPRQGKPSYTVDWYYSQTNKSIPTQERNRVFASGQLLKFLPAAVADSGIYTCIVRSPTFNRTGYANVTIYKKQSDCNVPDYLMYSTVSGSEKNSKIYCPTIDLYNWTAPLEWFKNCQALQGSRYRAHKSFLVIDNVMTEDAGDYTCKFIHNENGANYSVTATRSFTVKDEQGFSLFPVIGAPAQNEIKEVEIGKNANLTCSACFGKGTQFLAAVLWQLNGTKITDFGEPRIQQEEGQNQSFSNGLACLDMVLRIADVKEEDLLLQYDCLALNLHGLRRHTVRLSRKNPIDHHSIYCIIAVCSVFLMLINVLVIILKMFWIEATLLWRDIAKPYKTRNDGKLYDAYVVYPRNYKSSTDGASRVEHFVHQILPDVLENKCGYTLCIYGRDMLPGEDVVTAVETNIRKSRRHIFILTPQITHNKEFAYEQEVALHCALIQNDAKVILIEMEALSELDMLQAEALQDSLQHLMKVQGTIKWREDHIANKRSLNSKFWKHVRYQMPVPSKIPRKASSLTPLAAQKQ
Assay: cell-based or functional assay

Data request, read-out Relative activity, KU812-IL5 production by reduced IL33, for 5888-379-H1L0 (antibody, human IgG4 S228P, kappa, V domains shown, Humanized antibody) VH: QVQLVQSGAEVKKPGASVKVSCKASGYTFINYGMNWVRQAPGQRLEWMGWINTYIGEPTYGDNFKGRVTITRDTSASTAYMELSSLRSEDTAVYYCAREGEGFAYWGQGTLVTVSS VL: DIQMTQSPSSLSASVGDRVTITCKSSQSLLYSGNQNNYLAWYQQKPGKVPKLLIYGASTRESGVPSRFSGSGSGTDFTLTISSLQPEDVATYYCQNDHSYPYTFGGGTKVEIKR
51.1%

Data request, read-out Relative activity, KU812-IL5 production by reduced IL33, for 5888-379-H2L1 (antibody, human IgG4 S228P, kappa, V domains shown, Humanized antibody) VH: QVQLVQSGAEVKKPGASVKVSCKASGYTFINYGMNWVRQAPGQRLEWMGWINTYIGEPTYGDNFKGRVTITRDTSASTAYMELSSLRSEDTAVYYCAREGDAFAYWGQGTLVTVSS VL: DIQMTQSPSSLSASVGDRVTITCKSSQSLLYSGNQNNYLAWYQQKPGKVPKLLIYGASTRESGVPSRFSGSGSGTDFTLTISSLQPEDLATYYCQNDHSYPYTFGGGTKVEIKR
51.1%

Data request, read-out Relative activity, KU812-IL5 production by reduced IL33, for 5887-41-H1L0 (antibody, human IgG4 S228P, kappa, V domains shown, Humanized antibody) VH: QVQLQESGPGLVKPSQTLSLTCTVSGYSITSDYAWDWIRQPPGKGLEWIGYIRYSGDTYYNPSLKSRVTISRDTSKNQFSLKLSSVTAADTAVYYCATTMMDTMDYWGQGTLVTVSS VL: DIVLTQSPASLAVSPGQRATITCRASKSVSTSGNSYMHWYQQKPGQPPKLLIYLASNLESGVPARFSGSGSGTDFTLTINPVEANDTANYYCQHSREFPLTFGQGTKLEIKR
208%

Data request, read-out Relative activity, KU812-IL5 production by reduced IL33, for 5886-156-H1L0 (antibody, human IgG4 S228P, kappa, V domains shown, Humanized antibody expressed in CHO-K1, purified by protein A) VH: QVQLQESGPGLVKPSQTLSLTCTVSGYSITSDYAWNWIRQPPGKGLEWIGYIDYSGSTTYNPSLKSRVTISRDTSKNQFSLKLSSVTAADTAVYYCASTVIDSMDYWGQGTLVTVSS VL: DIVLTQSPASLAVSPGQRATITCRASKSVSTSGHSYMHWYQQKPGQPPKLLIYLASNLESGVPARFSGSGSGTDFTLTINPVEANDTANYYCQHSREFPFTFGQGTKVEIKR
195%
